Measure: melting point

Look up melting point for the entries below, preserving their order.
1. O=C(Nc1cc(F)cc(F)c1)N1CCN(Cc2nc3ccccc3c(=O)[nH]2)CC1
2. O=C(Nc1cccc(Cl)c1)N1CCN(Cc2nc3ccccc3c(=O)[nH]2)CC1
3. Cc1ccc(Cl)cc1NC(=O)N1C2CCC1CN(Cc1nc3ccccc3c(=O)[nH]1)C2
4. COc1ccc(NC(=O)N2CCN(Cc3nc4ccccc4c(=O)[nH]3)CC2)cc1
5. Cc1c(F)cccc1NC(=O)N1CCN(Cc2nc3ccccc3c(=O)[nH]2)CC1

1. 199.8 to 200.2 °C
2. 193.3 to 195.2 °C
3. 192.3 to 193.6 °C
4. 184.9 to 186.9 °C
5. 198.9 to 200.6 °C

meta.source: paper PMC10974284
